Assay: Selectivity index, ratio of CC50 for human MT2 cells to IC50 for Anti-HIV activity against HIV
Assay type: toxicity
Conditions: read-out: Selectivity Index
reported property: selectivity ratio

Some molecules with recorded selectivity ratio:
molecule	recorded value
C[C@H](Cn1cnc2c(N)ncnc21)OCP(=O)(O)O [TENOFOVIR ANHYDROUS]	333
C=C1C(=O)O[C@@H]([C@@H](C)[C@]2(O)C[C@H](OC(C)=O)[C@]3(O)[C@@H]4C[C@H]5O[C@]56CC=CC(=O)[C@]6(C)[C@H]4CC[C@@]32C)C[C@]1(C)O	> 5.3
C=C1C(=O)O[C@@H]([C@@H](C)[C@]2(O)C[C@H](OC(C)=O)[C@]3(O)[C@@H]4C[C@H]5O[C@]56CC=CC(=O)[C@]6(C)[C@H]4CC[C@@]32C)C[C@@]1(C)O	> 8

From here, focus on the item given below.
// query Any idea what selectivity ratio was measured for CC(=O)O[C@H]1C=C([C@H](C)[C@H]2CC(C)=C(C)C(=O)O2)[C@@]2(C)CC[C@H]3[C@@H](C[C@H]4O[C@]45CC=CC(=O)[C@]35C)[C@@]12O ?
// result 10.6

---

Test: Antiviral activity against HIV1 pNL4.3-Luc infected in MT2 cells assessed as luciferase activity measured after 48 hrs by transfection assay
Type: functional, cell-based
Conditions: Human immunodeficiency virus 1, MT2, 48 h
reported property: IC50 (µM)
The figure you give is taken to be in µM; do not add the unit.

// query Reported IC50, molecule CC(=O)O[C@H]1C=C([C@H](C)[C@H]2CC(C)=C(C)C(=O)O2)[C@@]2(C)CC[C@H]3[C@@H](C[C@@H](O)[C@]45C=C[C@H](OO4)C(=O)[C@]35C)[C@@]12O : ____
// result 1.97

---

Test: Selectivity index, ratio of CC50 for human MT2 cells to IC50 for antiviral activity against HIV1 pNL4.3-Luc infected in MT2 cells by transfection assay
Format: toxicity, cell-based
Conditions: read-out: Selectivity Index
reported property: selectivity ratio
Hey, just send me the number, nothing else.

// query Need selectivity ratio, item CC(=O)O[C@H]1C=C([C@H](C)[C@H]2CC(C)=C(C)C(=O)O2)[C@@]2(C)CC[C@H]3[C@@H](C[C@@H](O)[C@]45C=C[C@H](OO4)C(=O)[C@]35C)[C@@]12O
// result 1.02

Cited source: ChEMBL document CHEMBL4831539
